- tested on: T1, His-Taf14_(YEATS) (S. cerevisiae, UniProt P35189 1-137)
- T1 construct: Taf14, S. cerevisiae, YEATS domain, aa 1–137; Labelled on the His tag with the His-Tag Labeling Kit RED-tris-NTA (2nd Generation) for MST; source: E. coli Rosetta-2 (DE3) pLysS, purified (Ni-NTA, SEC)
- T1 sequence (looked up): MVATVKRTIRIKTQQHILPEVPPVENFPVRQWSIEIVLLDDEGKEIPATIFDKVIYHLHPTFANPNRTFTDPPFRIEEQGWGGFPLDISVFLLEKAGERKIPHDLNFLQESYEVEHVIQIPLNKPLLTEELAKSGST
- assay procedure: MST; His-tagged Taf14 protein labeled with RED-tris-NTA kept at 20 nM, unlabeled peptide added stepwise; 20 mM Tris-HCl pH 7.5, 150 mM NaCl, 0–0.2 mM TCEP; Monolith NT.115; n = 2 or 3
- experimental parameters: both partners purified
measure name: Kd (µM)
Kindly answer with a numeric value in µM, unit omitted.

Return value of Kd for input SRSFMVKIRTK (peptide, UniProt P23255 1392-1402, looked up, Taf2, subunit of yeast TFIID, C-terminal hxhKh motif-containing tail, aa 1392–1402; also called Taf2 peptide; C-terminal tail of Taf2; source: synthetic peptide (Synpeptide)) [Taf2CT peptide (aa 1392–1402 of Taf2)] , no commentary.
6
